Data origin: patent US10428140B2

Here, each record is paired with measured hEphB1-SEAP-: absorbance at 450 nm, percentage with respect to hEphA4-SEAP-His as 100% data.
- testedOn: T1, human EphB1 (Homo sapiens, UniProt P54762)
- T1 construct: a protein of the extracellular region of each human Eph receptor fused with the SEAP protein and the His tag; made in house; host or cells: Expi293F cells (culture supernatant)
- T1 sequence (P54762 18-540 limits assumed): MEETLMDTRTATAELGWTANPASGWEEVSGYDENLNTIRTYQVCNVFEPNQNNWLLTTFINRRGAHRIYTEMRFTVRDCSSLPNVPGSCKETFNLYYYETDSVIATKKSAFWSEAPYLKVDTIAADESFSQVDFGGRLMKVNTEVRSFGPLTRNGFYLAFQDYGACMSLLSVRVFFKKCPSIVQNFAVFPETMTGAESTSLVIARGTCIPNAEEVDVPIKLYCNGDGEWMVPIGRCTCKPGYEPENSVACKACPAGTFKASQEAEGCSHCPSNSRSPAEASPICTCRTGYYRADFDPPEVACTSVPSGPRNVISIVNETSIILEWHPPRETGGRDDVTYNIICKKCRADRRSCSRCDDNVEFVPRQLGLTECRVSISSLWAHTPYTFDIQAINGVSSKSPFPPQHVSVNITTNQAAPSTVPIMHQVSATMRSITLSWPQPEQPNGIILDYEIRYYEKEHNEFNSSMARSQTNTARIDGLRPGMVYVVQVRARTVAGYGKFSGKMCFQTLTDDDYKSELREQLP
- experimentNotes: Selectivity ELISA of humanized antibodies for human Eph receptor
- Type: binding
- measurementContext: coated protein 1 nM
Answer in %, number only, no unit symbol.

IN: Fill blank: measured hEphB1-SEAP-: absorbance at 450 nm, percentage with respect to hEphA4-SEAP-His as 100% of the molecule 140 (antibody, V domains shown, synthetic humanized antibody heavy chain variable region sequence; synthetic humanized antibody light chain variable region sequence) VH: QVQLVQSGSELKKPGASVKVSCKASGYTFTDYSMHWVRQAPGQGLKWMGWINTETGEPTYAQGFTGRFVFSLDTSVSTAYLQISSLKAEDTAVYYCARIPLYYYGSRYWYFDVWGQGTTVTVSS VL: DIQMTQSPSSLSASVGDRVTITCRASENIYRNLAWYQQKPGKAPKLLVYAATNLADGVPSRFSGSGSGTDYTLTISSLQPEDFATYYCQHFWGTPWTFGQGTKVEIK is ____.
OUT: 5.3

IN: Now consider 158 (antibody, V domains shown, synthetic humanized antibody heavy chain variable region sequence; synthetic humanized antibody light chain variable region sequence) VH: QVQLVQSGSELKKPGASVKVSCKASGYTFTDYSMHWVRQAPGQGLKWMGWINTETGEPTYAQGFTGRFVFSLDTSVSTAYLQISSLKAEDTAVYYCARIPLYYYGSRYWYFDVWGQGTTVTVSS VL: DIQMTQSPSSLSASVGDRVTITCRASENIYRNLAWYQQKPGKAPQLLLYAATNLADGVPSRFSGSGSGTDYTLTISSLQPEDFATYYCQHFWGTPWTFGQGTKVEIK and answer again.
OUT: 6.2

IN: Now consider 91 (antibody, V domains shown, constant regions without entry; synthetic humanized antibody light chain variable region sequence; synthetic humanized antibody heavy chain variable region sequence) VL: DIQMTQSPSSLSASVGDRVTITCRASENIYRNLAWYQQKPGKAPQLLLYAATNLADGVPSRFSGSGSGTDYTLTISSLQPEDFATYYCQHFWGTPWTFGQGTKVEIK VH: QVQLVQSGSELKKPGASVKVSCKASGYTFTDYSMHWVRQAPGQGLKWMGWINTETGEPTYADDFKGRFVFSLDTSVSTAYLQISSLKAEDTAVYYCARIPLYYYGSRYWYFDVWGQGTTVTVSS and answer again.
OUT: 6.6
